System: HIV-1 wild-type (R8) virus
Assay: Viral KINetics in Green cells (VIKING) assay, HIV-1 replication in MT4-GFP reporter cells
Assay type: cell-based
Conditions: Human immunodeficiency virus 1, 10% normal human serum, MT4-GFP cells, HIV-1 wild-type (R8); read-out: Viking (10% NHS), IC50
pIC50: −log10 of the molar value.
Lab note: compare pIC50 against 8. Equal or greater, write Met. Smaller, write Not met.

>  <substance-smiles>
C#C[C@]1(CO)O[C@@H](n2ccc3c(N)nc(Cl)nc32)C[C@@H]1OC(=O)OCCCCCCCC

>  <qualitative-label>
Met

$$$$
>  <substance-smiles>
C#C[C@]1(COC(=O)CCCCCCCCCCCCCCCCCCC)O[C@@H](n2ccc3c(N)nc(Cl)nc32)C[C@@H]1O

>  <qualitative-label>
Not met

$$$$
>  <substance-smiles>
C#C[C@]1(COC(=O)OCC(C)(C)C)O[C@@H](n2ccc3c(N)nc(Cl)nc32)C[C@@H]1O

>  <qualitative-label>
Met

$$$$
>  <substance-smiles>
C#C[C@]1(COC(=O)OCCCc2ccccc2)O[C@@H](n2ccc3c(N)nc(Cl)nc32)C[C@@H]1O

>  <qualitative-label>
Met

$$$$
>  <substance-smiles>
C#C[C@]1(COC(=O)[C@@H](C)c2ccccc2)O[C@@H](n2ccc3c(N)nc(Cl)nc32)C[C@@H]1O

>  <qualitative-label>
Met

$$$$
>  <substance-smiles>
C#C[C@]1(COC(=O)CCCC)O[C@@H](n2ccc3c(N)nc(Cl)nc32)C[C@@H]1OC(=O)OC

>  <qualitative-label>
Not met

$$$$
>  <substance-smiles>
C#C[C@]1(CO)O[C@@H](n2ccc3c(NC(=O)CCCCCCCCC)nc(Cl)nc32)C[C@@H]1O

>  <qualitative-label>
Not met

$$$$
